Reported values of log10 of IC50 for individual entries
System: recombinant human DAO (diamine oxidase) (Homo sapiens)
Construct: purchased R&D systems
Sequence (P19801 20-751): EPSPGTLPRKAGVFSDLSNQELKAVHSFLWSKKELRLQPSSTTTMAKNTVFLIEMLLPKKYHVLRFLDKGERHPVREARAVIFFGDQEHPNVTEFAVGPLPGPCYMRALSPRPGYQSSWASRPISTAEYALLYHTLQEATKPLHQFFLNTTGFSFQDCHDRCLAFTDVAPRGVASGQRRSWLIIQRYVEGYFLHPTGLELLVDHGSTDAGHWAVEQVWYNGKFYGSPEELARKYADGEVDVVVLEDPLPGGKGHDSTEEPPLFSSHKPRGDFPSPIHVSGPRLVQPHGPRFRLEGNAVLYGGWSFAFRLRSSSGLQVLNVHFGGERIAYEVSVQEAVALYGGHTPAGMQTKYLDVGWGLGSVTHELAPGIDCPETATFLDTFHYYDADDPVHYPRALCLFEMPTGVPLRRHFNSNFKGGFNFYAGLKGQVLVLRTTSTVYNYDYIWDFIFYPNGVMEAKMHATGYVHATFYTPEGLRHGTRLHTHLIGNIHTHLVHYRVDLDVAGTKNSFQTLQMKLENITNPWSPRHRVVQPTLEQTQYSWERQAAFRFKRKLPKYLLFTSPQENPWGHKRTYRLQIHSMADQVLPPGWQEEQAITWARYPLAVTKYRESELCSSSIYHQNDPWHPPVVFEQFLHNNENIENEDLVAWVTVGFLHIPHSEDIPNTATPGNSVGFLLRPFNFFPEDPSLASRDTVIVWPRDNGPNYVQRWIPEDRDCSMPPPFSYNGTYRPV
Experiment description: Activity on recombinant human DAO, method similar to the VAP-1 assay
Assay type: biochemical
Recorded conditions: substrate 1 mM putrescine; read-out: Inhibitory Activity (IC50, nM) DAO
Structures can show the parent of a compound that is named as a salt.
Parameter measured: log10 of IC50 (log10 of the value in nM)

- Molecule: "NC/C(=C\\F)Cn1ncn(Cc2ccc(/C=C/c3ccc(C(F)(F)F)cc3)s2)c1=O [Example 119, hydrochloride]"
  System: "recombinant human DAO (diamine oxidase) (Homo sapiens)"
  log10 of IC50: 2.93
- Molecule: "CN(C)c1cccc(-c2ccc(Cn3cnn(C/C(=C/F)CN)c3=O)s2)c1 [Example 4, hydrochloride]"
  System: "recombinant human DAO (diamine oxidase) (Homo sapiens)"
  log10 of IC50: 3.98
- Molecule: "NC/C(=C\\F)Cn1ncn(Cc2ccc(C#Cc3ccc4c(n3)OCCN4)s2)c1=O [Example 136, hydrochloride]"
  System: "recombinant human DAO (diamine oxidase) (Homo sapiens)"
  log10 of IC50: 2.90
- Molecule: "COC(=O)c1ccc(-c2ccc(Cn3cnn(C/C(=C/F)CN)c3=O)s2)cc1F [Example 12, hydrochloride]"
  System: "recombinant human DAO (diamine oxidase) (Homo sapiens)"
  log10 of IC50: 2.30
- Molecule: "NC/C(=C\\F)Cn1ncn(Cc2ccc(-c3ccc4c(c3)NC(=O)OC4)s2)c1=O [Example 100, hydrochloride]"
  System: "recombinant human DAO (diamine oxidase) (Homo sapiens)"
  log10 of IC50: 2.15
- Molecule: "NC/C(=C\\F)Cn1ncn(Cc2ccc(-c3ccc(N4CCCC4=O)cc3)s2)c1=O [Example 21, hydrochloride]"
  System: "recombinant human DAO (diamine oxidase) (Homo sapiens)"
  log10 of IC50: 3.11
- Molecule: "NC/C(=C\\F)Cn1ncn(Cc2ccc(-c3ccc(F)c(F)c3)s2)c1=O [Example 14, hydrochloride]"
  System: "recombinant human DAO (diamine oxidase) (Homo sapiens)"
  log10 of IC50: 3.38
- Molecule: "Cc1cc(-c2ccc(Cn3cnn(C/C(=C/F)CN)c3=O)s2)cc2ccc(=O)[nH]c12 [Example 78]"
  System: "recombinant human DAO (diamine oxidase) (Homo sapiens)"
  log10 of IC50: 2.80
- Molecule: "CC1Oc2ccc(-c3ccc(Cn4cnn(C/C(=C/F)CN)c4=O)s3)cc2NC1=O (stereo not shown) [Example 97, hydrochloride]"
  System: "recombinant human DAO (diamine oxidase) (Homo sapiens)"
  log10 of IC50: 2.36
- Molecule: "NC/C(=C\\F)Cn1ncn(Cc2ccc(-c3cnc4c(c3)CCC(=O)N4)s2)c1=O [Example 148]"
  System: "recombinant human DAO (diamine oxidase) (Homo sapiens)"
  log10 of IC50: 2.62
- Molecule: "COc1cc(-c2ccc(Cn3cnn(C/C(=C/F)CN)c3=O)s2)cc(OC)c1OC [Example 17, hydrochloride]"
  System: "recombinant human DAO (diamine oxidase) (Homo sapiens)"
  log10 of IC50: 2.79
- Molecule: "CC(C)c1nc(-c2ccc(-c3ccc(Cn4cnn(C/C(=C/F)CN)c4=O)s3)cc2)no1 [Example 37, hydrochloride]"
  System: "recombinant human DAO (diamine oxidase) (Homo sapiens)"
  log10 of IC50: 2.08
- Molecule: "CC(C)n1cc(-c2ccc(Cn3cnn(C/C(=C/F)CN)c3=O)s2)ccc1=O [Example 143]"
  System: "recombinant human DAO (diamine oxidase) (Homo sapiens)"
  log10 of IC50: 3.23
- Molecule: "NC/C(=C\\F)Cn1ncn(CCc2ccc(-c3ccc(N4CCNCC4)cc3)s2)c1=O [Example 221]"
  System: "recombinant human DAO (diamine oxidase) (Homo sapiens)"
  log10 of IC50: 3.15
- Molecule: "NC/C(=C\\F)Cn1ncn(Cc2cc3cc(-c4ccc5c(c4)OCO5)ccc3s2)c1=O [Example 207]"
  System: "recombinant human DAO (diamine oxidase) (Homo sapiens)"
  log10 of IC50: 3.45
- Molecule: "CSc1ccc(-c2ccc(Cn3cnn(C/C(=C/F)CN)c3=O)s2)cn1 [Example 46, hydrochloride]"
  System: "recombinant human DAO (diamine oxidase) (Homo sapiens)"
  log10 of IC50: 2.58
- Molecule: "CN(C)c1ncc(-c2ccc(Cn3cnn(C/C(=C/F)CN)c3=O)s2)cc1F [Example 173]"
  System: "recombinant human DAO (diamine oxidase) (Homo sapiens)"
  log10 of IC50: 3.08
- Molecule: "NC/C(=C\\F)Cn1ncn(CCc2ccc(-c3ccc4c(c3)OCO4)s2)c1=O [Example 215]"
  System: "recombinant human DAO (diamine oxidase) (Homo sapiens)"
  log10 of IC50: 2.58
- Molecule: "COCCOc1ccc(-c2ccc(Cn3cnn(C/C(=C/F)CN)c3=O)s2)cc1 [Example 19, hydrochloride]"
  System: "recombinant human DAO (diamine oxidase) (Homo sapiens)"
  log10 of IC50: 3.26
- Molecule: "NC/C(=C\\F)Cn1ncn(Cc2ccc(C#Cc3ccc(N4CCOCC4)nc3)s2)c1=O [Example 129, hydrochloride]"
  System: "recombinant human DAO (diamine oxidase) (Homo sapiens)"
  log10 of IC50: 2.56
- Molecule: "Cn1nccc1-c1ccc(Cn2cnn(C/C(=C/F)CN)c2=O)s1 [Example 156]"
  System: "recombinant human DAO (diamine oxidase) (Homo sapiens)"
  log10 of IC50: 3.11
- Molecule: "NC/C(=C\\F)Cn1ncn(Cc2ccc(-c3cc4c(cc3F)OCCN4)s2)c1=O [Example 107]"
  System: "recombinant human DAO (diamine oxidase) (Homo sapiens)"
  log10 of IC50: 2.98
- Molecule: "NC/C(=C\\F)Cn1ncn(Cc2ccc(C#Cc3cnc4c(c3)OCC(=O)N4)s2)c1=O [Example 139, hydrochloride]"
  System: "recombinant human DAO (diamine oxidase) (Homo sapiens)"
  log10 of IC50: 2.46
- Molecule: "NC/C(=C\\F)Cn1ncn(Cc2ccc(-c3ccnnc3)s2)c1=O [Example 175]"
  System: "recombinant human DAO (diamine oxidase) (Homo sapiens)"
  log10 of IC50: 2.83
- Molecule: "CN1CCC(n2cc(-c3ccc(Cn4cnn(C/C(=C/F)CN)c4=O)s3)cn2)CC1 [Example 159]"
  System: "recombinant human DAO (diamine oxidase) (Homo sapiens)"
  log10 of IC50: 3.08

The measurements presented in this section are drawn from patent US11780830B2.
